condition: in toluene, 300.65 K
test-readout: solubility (mole fraction)

1) Cc1cc(C(=O)O)ccc1[N+](=O)[O-]
0.0231

---

condition: in acetonitrile, 295.65 K
test-readout: solubility (mole fraction)

1. Cc1cc(C(=O)O)ccc1[N+](=O)[O-]
0.00382

---

condition: in 1,4-dioxane, 318.15 K
test-readout: solubility (mole fraction)

1. Cc1cc(C(=O)O)ccc1[N+](=O)[O-]
0.0802

---

condition: in acetone, 313.15 K
test-readout: solubility (mole fraction)

1) Cc1cc(C(=O)O)ccc1[N+](=O)[O-]
0.0338

---

condition: in 1,4-dioxane, 290.65 K
test-readout: solubility (mole fraction)

1. Cc1cc(C(=O)O)ccc1[N+](=O)[O-]
0.0469

---

condition: in methanol, 290.65 K
test-readout: solubility (mole fraction)

1) Cc1cc(C(=O)O)ccc1[N+](=O)[O-]
0.00809

---

condition: in acetonitrile, 305.65 K
test-readout: solubility (mole fraction)

1) Cc1cc(C(=O)O)ccc1[N+](=O)[O-]
0.00498

---

condition: in toluene, 283.15 K
test-readout: solubility (mole fraction)

1. Cc1cc(C(=O)O)ccc1[N+](=O)[O-]
0.0165

---

condition: in n-propanol, 318.15 K
test-readout: solubility (mole fraction)

1. Cc1cc(C(=O)O)ccc1[N+](=O)[O-]
0.0164

---

condition: in toluene, 318.15 K
test-readout: solubility (mole fraction)

1) Cc1cc(C(=O)O)ccc1[N+](=O)[O-]
0.0333

---

condition: in NMP, 295.65 K
test-readout: solubility (mole fraction)

1) Cc1cc(C(=O)O)ccc1[N+](=O)[O-]
0.1

---

condition: in ethanol, 283.15 K
test-readout: solubility (mole fraction)

1) Cc1cc(C(=O)O)ccc1[N+](=O)[O-]
0.00751

---

condition: in ethyl acetate, 305.65 K
test-readout: solubility (mole fraction)

1. Cc1cc(C(=O)O)ccc1[N+](=O)[O-]
0.0159

---

condition: in DMF, 293.15 K
test-readout: solubility (mole fraction)

1) Cc1cc(C(=O)O)ccc1[N+](=O)[O-]
0.0845

---

condition: in n-propanol, 310.65 K
test-readout: solubility (mole fraction)

1) Cc1cc(C(=O)O)ccc1[N+](=O)[O-]
0.0137

---

condition: in methanol, 288.15 K
test-readout: solubility (mole fraction)

1) Cc1cc(C(=O)O)ccc1[N+](=O)[O-]
0.00734

---

condition: in n-butanol, 303.15 K
test-readout: solubility (mole fraction)

1. Cc1cc(C(=O)O)ccc1[N+](=O)[O-]
0.0125

---

condition: in 1,4-dioxane, 298.15 K
test-readout: solubility (mole fraction)

1) Cc1cc(C(=O)O)ccc1[N+](=O)[O-]
0.0545

---

condition: in acetonitrile, 308.15 K
test-readout: solubility (mole fraction)

1) Cc1cc(C(=O)O)ccc1[N+](=O)[O-]
0.00529

---

condition: in isopropanol, 295.65 K
test-readout: solubility (mole fraction)

1) Cc1cc(C(=O)O)ccc1[N+](=O)[O-]
0.0115

---

condition: in ethyl acetate, 308.15 K
test-readout: solubility (mole fraction)

1. Cc1cc(C(=O)O)ccc1[N+](=O)[O-]
0.0167

---

condition: in ethanol, 290.65 K
test-readout: solubility (mole fraction)

1) Cc1cc(C(=O)O)ccc1[N+](=O)[O-]
0.00866

---

condition: in methanol, 308.15 K
test-readout: solubility (mole fraction)

1) Cc1cc(C(=O)O)ccc1[N+](=O)[O-]
0.0137

---

condition: in acetonitrile, 283.15 K
test-readout: solubility (mole fraction)

1. Cc1cc(C(=O)O)ccc1[N+](=O)[O-]
0.00255

---

condition: in toluene, 303.15 K
test-readout: solubility (mole fraction)

1) Cc1cc(C(=O)O)ccc1[N+](=O)[O-]
0.0243

---

condition: in acetonitrile, 303.15 K
test-readout: solubility (mole fraction)

1. Cc1cc(C(=O)O)ccc1[N+](=O)[O-]
0.00469

---

condition: in DMF, 300.65 K
test-readout: solubility (mole fraction)

1) Cc1cc(C(=O)O)ccc1[N+](=O)[O-]
0.104

---

condition: in toluene, 315.65 K
test-readout: solubility (mole fraction)

1) Cc1cc(C(=O)O)ccc1[N+](=O)[O-]
0.0314

---

condition: in toluene, 308.15 K
test-readout: solubility (mole fraction)

1. Cc1cc(C(=O)O)ccc1[N+](=O)[O-]
0.0265

---

condition: in methanol, 285.65 K
test-readout: solubility (mole fraction)

1) Cc1cc(C(=O)O)ccc1[N+](=O)[O-]
0.00664

---

condition: in n-butanol, 315.65 K
test-readout: solubility (mole fraction)

1) Cc1cc(C(=O)O)ccc1[N+](=O)[O-]
0.0174

---

condition: in acetone, 290.65 K
test-readout: solubility (mole fraction)

1) Cc1cc(C(=O)O)ccc1[N+](=O)[O-]
0.0228

---

condition: in ethyl acetate, 295.65 K
test-readout: solubility (mole fraction)

1. Cc1cc(C(=O)O)ccc1[N+](=O)[O-]
0.0134

---

condition: in acetonitrile, 300.65 K
test-readout: solubility (mole fraction)

1. Cc1cc(C(=O)O)ccc1[N+](=O)[O-]
0.00438

---

condition: in methanol, 313.15 K
test-readout: solubility (mole fraction)

1) Cc1cc(C(=O)O)ccc1[N+](=O)[O-]
0.0158

---

condition: in toluene, 313.15 K
test-readout: solubility (mole fraction)

1. Cc1cc(C(=O)O)ccc1[N+](=O)[O-]
0.0295

---

condition: in DMF, 285.65 K
test-readout: solubility (mole fraction)

1. Cc1cc(C(=O)O)ccc1[N+](=O)[O-]
0.0709

---

condition: in isopropanol, 303.15 K
test-readout: solubility (mole fraction)

1) Cc1cc(C(=O)O)ccc1[N+](=O)[O-]
0.0136

---

condition: in ethanol, 315.65 K
test-readout: solubility (mole fraction)

1. Cc1cc(C(=O)O)ccc1[N+](=O)[O-]
0.0146

---

condition: in 1,4-dioxane, 300.65 K
test-readout: solubility (mole fraction)

1) Cc1cc(C(=O)O)ccc1[N+](=O)[O-]
0.0571

---

condition: in NMP, 315.65 K
test-readout: solubility (mole fraction)

1) Cc1cc(C(=O)O)ccc1[N+](=O)[O-]
0.138

---

condition: in 1,4-dioxane, 283.15 K
test-readout: solubility (mole fraction)

1. Cc1cc(C(=O)O)ccc1[N+](=O)[O-]
0.0407

---

condition: in NMP, 293.15 K
test-readout: solubility (mole fraction)

1) Cc1cc(C(=O)O)ccc1[N+](=O)[O-]
0.0965

---

condition: in n-butanol, 305.65 K
test-readout: solubility (mole fraction)

1) Cc1cc(C(=O)O)ccc1[N+](=O)[O-]
0.0134

---

condition: in NMP, 290.65 K
test-readout: solubility (mole fraction)

1) Cc1cc(C(=O)O)ccc1[N+](=O)[O-]
0.0933

---

condition: in DMF, 283.15 K
test-readout: solubility (mole fraction)

1) Cc1cc(C(=O)O)ccc1[N+](=O)[O-]
0.0677

---

condition: in isopropanol, 318.15 K
test-readout: solubility (mole fraction)

1) Cc1cc(C(=O)O)ccc1[N+](=O)[O-]
0.0192

---

condition: in DMF, 308.15 K
test-readout: solubility (mole fraction)

1. Cc1cc(C(=O)O)ccc1[N+](=O)[O-]
0.126

---

condition: in DMF, 288.15 K
test-readout: solubility (mole fraction)

1. Cc1cc(C(=O)O)ccc1[N+](=O)[O-]
0.0754

---

condition: in acetonitrile, 298.15 K
test-readout: solubility (mole fraction)

1) Cc1cc(C(=O)O)ccc1[N+](=O)[O-]
0.00412

---

condition: in acetone, 285.65 K
test-readout: solubility (mole fraction)

1) Cc1cc(C(=O)O)ccc1[N+](=O)[O-]
0.0212

---

condition: in toluene, 305.65 K
test-readout: solubility (mole fraction)

1) Cc1cc(C(=O)O)ccc1[N+](=O)[O-]
0.0253

---

condition: in isopropanol, 315.65 K
test-readout: solubility (mole fraction)

1. Cc1cc(C(=O)O)ccc1[N+](=O)[O-]
0.0181

Origin of values: BigSolDB 2.1
